System: HCT-116 colon
Test: NCI tumour cell line growth inhibition, 48 h
I'd be grateful if you could share measured TGI for these entries.

Here is how some compounds turned out for TGI.
Brc1ccc2c(c1)C1(c3cc(Br)ccc3-2)c2cc(Br)ccc2-c2ccc(Br)cc21	> 100 µM
COC(=O)c1c(C)oc2ccc(OC(C)=O)cc12	> 100 µM
CCN(CC)CCC(=O)Nc1ccc(Cn2nnc3c2C(=O)c2nnn(Cc4ccc(NC(=O)CCN(CC)CC)cc4)c2C3=O)cc1	1.12 µM
O=C(C[C@@H]1NCCC[C@H]1O)Cn1cnc2cc(Br)c(Cl)cc2c1=O	0.121 µM
CN(C)c1ccc(/C=C(\NC(=O)c2ccccc2)C(=O)Nc2ccccc2C(=O)NN2C(=O)CSC2c2ccc(N(C)C)cc2)cc1 (centres undefined)	> 100 µM
COc1ccc(C(=O)Cc2cc(OC)ccc2OC)cc1	> 100 µM
O=C(Cc1nc2ccc(C(=O)c3ccccc3)cc2[nH]c1=O)C(=O)Nc1ccccc1[N+](=O)[O-]	> 100 µM
CCOC(=O)c1c2c(n(C)c1-c1ccccc1)C(=O)C(C)=CC2=O	15 µM

We next turn to a different compound, shown below.
Which TGI value is on record for OC(CC(c1ccccc1)c1ccc(Cl)cc1)c1ccc(Cl)cc1 (centres undefined) ? > 100 µM

----------
I'd be grateful if you could share measured TGI for these entries.
Tested on: NCI/ADR-RES ovarian
Assay: NCI tumour cell line growth inhibition, 48 h

Here is how some compounds turned out for TGI.
CN(C)c1ccc(-c2nc(-c3cc4c(ccc5ccccc54)oc3=O)cs2)cc1	> 100 µM
O=C1/C(=C/c2cccc(Oc3ccccc3)c2)N=C(c2ccccc2)N1c1nc2ccc(Sc3ccccc3)cc2[nH]1	50.4 µM
Cc1[nH]c(=O)nc(N/N=C/c2ccc(Cl)c(Cl)c2)c1C(=O)Nc1ccc(Cl)c(Cl)c1	> 47.6 µM
CCCCCCCCCCCCCCCC[N+]1(CC)CCCC1	38.4 µM
COC(=O)Cc1c(C2=Nc3ccccc3C2(O)CC(=O)OC)[nH]c2ccccc12 (stereo not given)	> 100 µM
c1ccc2c(c1)nc(NCCN1CCNCC1)c1c3ccccc3[nH]c21	7.63 µM

Below is a list of compounds. For each, state its recorded TGI.
1. CC(C)=CCN(N=O)c1ncnc2nc[nH]c12
2. Cc1cs/c(=N\C(P(=O)(O)O)P(=O)(O)O)n1C
3. O=C(Cn1c2ccc(Br)cc2c2nc3ccccc3nc21)NC1CCCCC1
4. COc1ccc(N2C(=O)C3c4[nH]c5ccc(C)cc5c4C4CCC(C(C)C)CC4C3C2=O)cc1 (stereo not given)

1: > 100 µM; 2: > 100 µM; 3: > 100 µM; 4: > 100 µM

----------
Test system: CAKI-1 renal
Test: NCI tumour cell line growth inhibition, 48 h
I'd be grateful if you could share measured TGI for these entries.

Here is how some compounds turned out for TGI.
CNc1ccc2nc(-c3ccc(OC(=O)N(C)C)cc3)cn2c1	44.7 µM
CCOC(=O)c1cc(-c2ccc(OC)c(OC)c2)c[nH]1	> 10 µM
Cc1cc(CS(=O)(=O)/C=C/c2ccccc2[N+](=O)[O-])c(CS(=O)(=O)/C=C/c2ccccc2[N+](=O)[O-])cc1C	> 100 µM
COc1cc(C(c2cc3c(cc2O)OCO3)N2CCCC2)cc(OC)c1OC (stereo not given)	27 µM
O=C1CCC2(CC1)Cc1ccccc1C2O (stereo not given)	> 100 µM
CC(C)(C)n1cc(-c2ccnc(NCCNS(=O)(=O)c3ccc(Br)cc3)c2)c(-c2cccc(O)c2)n1	6.07 µM

Below is a list of compounds. For each, state its recorded TGI.
1. CC(C)(C)OC(=O)NC(Cc1ccccc1)C(=O)N[C@H]1c2ccsc2/C(=N/O)[C@H]1O (stereo not given in full)
2. COc1cc(C2C3=C(COC3=O)N(CCO)c3cc4c(cc32)CCC4)cc(OC)c1O (stereo not given)
3. O=C(CCCCCCCCC(=O)OCC1OC(n2cnc3c(=O)[nH]cnc32)C(O)C1O)OCC1OC(n2cnc3c(=O)[nH]cnc32)C(O)C1O (stereo not given)
4. CC1Cc2c(N(C)C)ncnc2N(C)c2ccc(Cl)cc21 (stereo not given)

["> 100 µM", "> 26.3 µM", "> 100 µM", "> 100 µM"]

Below is a list of compounds. For each, state its recorded TGI.
1. COc1cccc(-c2nn(-c3ccccc3)cc2-c2ccnc(NCCNC(=O)Nc3ccc(Cl)c(Cl)c3)c2)c1
2. Cc1ncc([N+](=O)[O-])n1CCN=[N+]=[N-]
3. c1ccc2c3c(ccc2c1)CSCc1ccc2ccccc2c1-3

11.1 µM
> 100 µM
> 100 µM

Below is a list of compounds. For each, state its recorded TGI.
1. O=C1c2cc3c(cc2CC12Cc1cc4c(cc1C2)CCC4)CCC3
2. Oc1cc2cc(-c3ccccc3)[nH]c2c2ccccc12

["> 100 µM", "90.8 µM"]

Below is a list of compounds. For each, state its recorded TGI.
1. COc1ccc(N2C(=O)C3c4[nH]c5ccc(C)cc5c4C4CCC(C(C)C)CC4C3C2=O)cc1 (stereo not given)
2. Cc1[nH]c(=O)nc(N/N=C/c2ccc(Cl)c(Cl)c2)c1C(=O)Nc1ccc(Cl)c(Cl)c1
3. CCOC(=O)/C=C1\Nc2ccccc2C12CCc1c([nH]c3ccccc13)C2C(=O)OCC (stereo not given)
4. O=C(Nc1cccc2nsnc12)c1cc2c(cc1Cl)Sc1nccn1S2(=O)=O
5. CCOC(=O)c1[nH]c2c(c1C)-c1[nH]c(=O)c(S(=O)(=O)c3ccccc3)cc1SC2

> 100 µM
33.3 µM
> 100 µM
25.7 µM
> 100 µM
